Kindly state AUC(0-t) for each of the entries shown.
protocol_description: Pharmacokinetics experiment in mice (intravenous and oral)
Assay type: in vivo
condition_info: both sexes, mouse, blood, 10 mg/kg, oral administration, single dose
Could you write the number and then its unit?

Recorded AUC(0-t) of CCS(=O)(=O)N1CC(CC#N)(n2cc(-c3ncnc4[nH]ncc34)cn2)C1 , please.
5950 ng·h/mL

Entry N#CCC1(n2cc(-c3ncnc4[nH]ncc34)cn2)CN(C2CCN(C(=O)c3ccnc(C(F)(F)F)c3F)CC2)C1 please
1710 ng·h/mL

Quick one: CCS(=O)(=O)N1CCC(N2CC(CC#N)(n3cc(-c4ncnc5[nH]ncc45)cn3)C2)CC1
2290 ng·h/mL
